The measurements presented in this section are drawn from patent US20230181564A1.

Tested on: P-glycoprotein (MDR1, ABCB1)
MEASUREMENT DESCRIPTION: in vitro
Format: in vitro ADME, canine
TEST CONDITIONS: dog, MDCK-MDR1
ATTRIBUTE MEASURED: efflux ratio

Input `Cc1[nH]c2c(c(=O)c1-c1ccc(Oc3ccccc3)cc1)CCCC2` . Output efflux ratio: < 1.5

----------
MEASUREMENT DESCRIPTION: Metabolic stability in mouse liver microsomes
Format: in vitro ADME
TEST CONDITIONS: predicted half-life in mouse liver microsomes; no unit in table (101 minutes for JAG021)
Would you please tag the item Condition met when its T1/2 (M) is 40 or above, and Condition not met when it is below?

Take a look at these entries with their results.
COMPOUND: CCC1CCc2c([nH]c(C)c(-c3ccc(Oc4ccc(OC(F)(F)F)cc4)cc3)c2=O)C1 (centres unmarked) [JAG121]
ASSIGNED CATEGORY: Condition met

COMPOUND: Cc1[nH]c2c(c(=O)c1-c1ccc(Oc3cc(Cl)nc(Cl)c3)cc1)CCCC2 [AS034]
ASSIGNED CATEGORY: Condition not met

Challenge: Exam item: decide whether the reported T1/2 (M) for Cc1[nH]c2c(c(=O)c1-c1ccc(Oc3ccc(C(F)(F)F)cc3)cc1)CCCC2 [JAG063] is at least 40.
Response given: Condition met

Challenge: hey, is T1/2 (M) for this one >= 40? Cc1[nH]c2c(c(=O)c1-c1ccc(Oc3cccc(C(F)(F)F)c3)cc1)CCCC2 [AS012]
Response given: Condition not met

Challenge: Could you please find out whether Cc1[nH]c2c(c(=O)c1-c1ccc(Oc3ccc(OC(F)(F)F)cc3)cc1)CCC(C(F)(F)F)C2 (centres unmarked) [JAG162] has T1/2 (M) that meets 40 or exceeds it?
Response given: Condition met

Challenge: Is T1/2 (M) at least 40? Consider Cc1[nH]c2c(c(=O)c1-c1ccc(Oc3cccc(OC(F)(F)F)c3)cc1)CCCC2 [AS006]
Response given: Condition not met

Challenge: # check: T1/2 (M) of Cc1[nH]c2c(c(=O)c1-c1ccc(Oc3ccc(Cl)c(Cl)c3)cc1)CCCC2 [JAG084] is greater than or equal to 40
Response given: Condition met

----------
MEASUREMENT DESCRIPTION: Kinetic/aqueous solubility in PBS pH 7.4
Assay type: physicochemical
TEST CONDITIONS: phosphate buffered saline, pH 7.4, aqueous buffer, kinetic from dmso stock; amorphous compounds
ATTRIBUTE MEASURED: solubility
The reply should consist of the numeric value with the unit placed after it.

Looking up `Cc1[nH]c2c(c(=O)c1-c1ccc(Oc3ccccc3)cc1)CCCC2` , I found its solubility recorded as 2 µM

----------
MEASUREMENT DESCRIPTION: Kinetic/aqueous solubility in PBS pH 7.4
Format: physicochemical
TEST CONDITIONS: solubility in Phosphate Buffered Saline pH 7.4; first value of cell
Protocol: PBS Sol/Toxicity pH7.4 refers to solubility of the compound in Phosphate Buffered Saline (PBS) at pH7.4. […] Parasites were RH-YFP expressing tachyzoites (Tachy) and EGS (Brady) strains. Studies of effects of inhibitors on HFF or on T.gondii tachyzoites were performed with triplicate wells in at least two biological replicate experiments. […] Structure Activity Relationship (SAR) and comparison of effect on T.gondii and HFF enzyme activity. […] These were measured by Chem Partners.
In this section we review reported PBS Sol pH7.4 values for a set of compounds.
# value in μM; strip the unit string

The value of PBS Sol pH7.4 measured for the compound Cc1[nH]c2c(c(=O)c1-c1ccc(Oc3ccc(Cl)c(Cl)c3)cc1)CCCC2 [JAG084] turned out to be 0.68

// recorded PBS Sol pH7.4 for Cc1[nH]c2c(c(=O)c1-c1ccc(Oc3cccc(C(F)(F)F)c3)cc1)CCCC2 [AS012] : 2.19

# compound Cc1[nH]c2c(c(=O)c1-c1ccc(Oc3ccccc3)cc1)CCCC2 [MJM170] ; its PBS Sol pH7.4 = 1.97

Looking up Cc1[nH]c2c(c(=O)c1-c1ccc(Oc3cccc(F)c3)cc1)CCCC2 [JAG069] , I found its PBS Sol pH7.4 recorded as 0.5

Item: O=c1c2c([nH]c(CO)c1-c1ccc(Oc3ccc(OC(F)(F)F)cc3)cc1)CCCC2 [JAG099] | PBS Sol pH7.4: 4.05
